subject-of-test: dSARM1^ARM (Drosophila SARM1 ARM domain) (Drosophila melanogaster, UniProt Q6IDD9)
Sequence (Q6IDD9 307-678): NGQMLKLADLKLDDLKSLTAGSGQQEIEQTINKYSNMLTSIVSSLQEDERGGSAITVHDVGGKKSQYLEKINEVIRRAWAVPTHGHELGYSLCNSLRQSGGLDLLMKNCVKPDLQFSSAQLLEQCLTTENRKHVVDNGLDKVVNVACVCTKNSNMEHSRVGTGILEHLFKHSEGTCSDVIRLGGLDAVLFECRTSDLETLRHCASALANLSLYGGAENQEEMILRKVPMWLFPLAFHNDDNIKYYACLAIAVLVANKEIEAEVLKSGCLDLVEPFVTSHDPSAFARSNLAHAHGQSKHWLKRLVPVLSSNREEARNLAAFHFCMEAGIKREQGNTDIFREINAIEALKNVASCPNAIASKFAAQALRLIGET
measurement-kind: Kd (µM)
State the answer as a number, implicitly in µM.

Query the reported Kd for dSARM1^ARM (Drosophila SARM1 ARM domain) (Drosophila melanogaster, UniProt Q6IDD9); item: NC(=O)c1ccc[n+]([C@@H]2O[C@H](COP(=O)([O-])OP(=O)(O)OC[C@H]3O[C@@H](n4cnc5c(N)ncnc54)[C@H](O)[C@@H]3O)[C@@H](O)[C@H]2O)c1 [NAD^+] 54.2

Each recorded value in this set is attributed to paper PMC8174188.
